Molecular target: α-glucosidase (Saccharomyces cerevisiae)
Construct: purchased Sigma-Aldrich Co
Sequence (P53341 whole entry): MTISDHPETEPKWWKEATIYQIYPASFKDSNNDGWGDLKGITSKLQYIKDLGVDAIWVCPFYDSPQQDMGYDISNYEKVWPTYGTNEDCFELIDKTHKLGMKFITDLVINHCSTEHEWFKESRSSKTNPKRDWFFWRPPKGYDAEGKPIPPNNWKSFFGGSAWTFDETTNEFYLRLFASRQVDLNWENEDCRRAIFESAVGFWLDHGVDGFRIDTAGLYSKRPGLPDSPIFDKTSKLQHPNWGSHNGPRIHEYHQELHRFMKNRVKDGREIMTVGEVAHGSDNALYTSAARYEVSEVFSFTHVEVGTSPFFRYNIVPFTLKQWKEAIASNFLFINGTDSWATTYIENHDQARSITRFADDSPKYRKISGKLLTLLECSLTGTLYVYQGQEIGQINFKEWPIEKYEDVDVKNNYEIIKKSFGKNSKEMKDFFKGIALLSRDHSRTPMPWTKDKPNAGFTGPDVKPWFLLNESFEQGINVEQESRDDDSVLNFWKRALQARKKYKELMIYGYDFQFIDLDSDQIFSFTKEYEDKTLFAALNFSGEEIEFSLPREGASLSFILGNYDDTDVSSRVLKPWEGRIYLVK
Assay: Fluorescence quenching experiment with α-glucosidase (Stern-Volmer, double logarithmic, Van 't Hoff)
Type: binding
Conditions: Ka (binding constant) α-glucosidase, T 300.15 K
Procedure: Based on the previously described techniques, the fluorescence quenching experiment was somewhat modified. […] The reaction solution’s fluorescence intensity was measured in a quartz colorimetric dish using a fluorescence spectrometer (F-7100, Tokyo, Japan) at wavelengths ranging from 295 to 500 nm (emission wavelength) and 280 nm ([…]) (1.0 cm path length). The 5.0 nm excitation and emission slit widths were predetermined. […]
parameter: Kd (nM)
Only the number, expressed in nM, is required.

Qu. Please report the recorded Kd for O=c1c(O)c(-c2ccc(O)c(O)c2)oc2cc(O[C@@H]3O[C@H](CO)[C@@H](O)[C@H](O)[C@H]3O)cc(O)c12 [Quercimeritrin] .
Ans. 1150

All figures here come from paper PMC10528180.
